- ASSAY_SYSTEM: T1, AD4 polypeptide (cloned AD4 fragment of CMV AD169 envelope glycoprotein B) (human cytomegalovirus strain AD169, UniProt P06473 112-438)
- T1 construct: also called antigenic domain 4
- TEST_PROTOCOL: SPR (Biacore T200), antibody captured on anti-human IgG CM5 chip, AD4 polypeptide as analyte, 1:1 model
ENDPOINT: kon (M⁻¹ s⁻¹)
Answer in M⁻¹ s⁻¹, number only, no unit symbol.

1) C12 (antibody, V domains shown, Human IgG, transiently expressed in HEK293) VH: QVQLQESGPGLVKPLETLSLTCTVSGGSIRGGDYWWTWVRQPPGKGLEWLGYIYRTGSTYYNPSLKSRLTISLDTSKNHFSLKLASATAADTAVYYCARDPGDDSGGNSGLDYWGQGVLVSVSS VL: QSMLTQPPSVSAAPGQKVIISCSGSSSNIGNNFVNWYQKFPGTAPKLLIYDNDKRPSGIPDRFSGSKSGTSATLGITGLQTGDEAEYYCGTWDSSLTAGVFGGGTTLTVLG :: 1.13e+06

# context switch: different binder, same kon
Q: Could you share which kon value was measured for C8 (antibody, V domains shown, Human IgG, transiently expressed in HEK293) VH: QVQLQESGPGLVKPLETLSLTCTVSGGSISSGSFYWTWIRQHPGKGLEWIGYIHSSGTTYYNPSLKSRLNISRDTSKNQFTLKLSSVTAADTAVYYCAKEIIQWPRRWFDPWGQGTLVTVSS VL: QSVLTQPPSVSAAPGQKVTISCSGSRSNIGKNYVYWYQQLPGTAPKLLIYDNNKRPSGIPDRFSGSKSGTSATLAITGLQTGDEADYYCGTWDSSLKTGIFFGGGTKLTVLG ?
A: 414000

Each recorded value in this set is attributed to patent US20150110794A1.
